test system: Bacillus subtilis; assay: cleaved RNA product abundance (RNA/gDNA barcode ratio) relative to median wild-type variant (ratio to wild type); higher = more accumulation of the downstream cleavage product; conditions: experiment (reporter, strain, medium): exp 2b: truncated aprE reporter, strain BJT200; cleavage site: cggR-gapA (positions -7 to +36 mutated)
Categorize each record by its cleaved RNA product abundance using bucket A = under 0.1, bucket B = from 0.1 up to 0.3, bucket C = 0.3 and over

### Prompt Exam item: assign ACAGACGAAGGAGCCGCAAAGACGTTATTAAGGGATGAATAATCCCTCCATATAAATATCTCTCACTTATTTAAA to the correct category.
### Response bucket C

### Prompt Exam item: assign ACAGACGAAGGAGCCGCAAAGAAGTTATTAAGAGCTGAATAATCCCTCAATATAAATATCTCTCACTTATTTAAA to the correct category.
### Response bucket A

### Prompt Exam item: assign ACAGACGAAGGAGCCGCAAAGAAGTTATTAAGGCATGAATAATCCCTCAATATATATATCTCTCACTTATTTAAA to the correct category.
### Response bucket B

### Prompt Exam item: assign ACAGACGAAGGAGCCGCAAAGAAGTTATTAATGGATGAATAATCCCTAAATATAAATATCTCTCACTTATTTAAA to the correct category.
### Response bucket B

### Prompt Exam item: assign ACAGACGAAGGAGCCGCAAAGAAGTTACTAACGGATGAATAATCCCTCAATATAAATATCTCTCACTTATTTAAA to the correct category.
### Response bucket A

### Prompt Exam item: assign ACAGACGAAGGAGCCGCAAAGAAGTTATTAAGGAATAAATAATCCCTCAATATAAATATCTCTCACTTATTTAAA to the correct category.
### Response bucket A

### Prompt Exam item: assign ACAGACGAAGGAGCCGCAAAAAAGTTATTAAGGGATGAATAATCCCTCAGTATAAATATCTCTCACTTATTTAAA to the correct category.
### Response bucket B

### Prompt Exam item: assign ACAGACGAAGGAGCCGCAAAGAAGTTATTAAGGGATGAATAATCCCTCAAAATAAATAGCTCTCACTTATTTAAA to the correct category.
### Response bucket B

### Prompt Exam item: assign ACAGACGAAGGAGCCGCAAAGAAGTTATTAAGGGCTGAATATTCCCTCAATATAAATATCTCTCACTTATTTAAA to the correct category.
### Response bucket B

### Prompt Exam item: assign ACAGACGAAGGAGCCGCAAAGATGTTATTAAGGGATGAATATTCCCTCAATATAAATATCTCTCACTTATTTAAA to the correct category.
### Response bucket C

### Prompt Exam item: assign ACAGACGAAGGAGCCGCAAATAAGTTATTAAGGGATGAATAATCCCTCAATATAATTATCTCTCACTTATTTAAA to the correct category.
### Response bucket C

### Prompt Exam item: assign ACAGACGAAGGAGCCGCACAGAAGTTATTAAAGGATGAATAATCCCTCAATATAAATATCTCTCACTTATTTAAA to the correct category.
### Response bucket B

### Prompt Exam item: assign ACAGACGAAGGAGCCGCAAAGAACTTATTAAGGGACGAATAATCCCTCAATATAAATATCTCTCACTTATTTAAA to the correct category.
### Response bucket C
